Attribution: ChEMBL document CHEMBL3297719

Molecular target: Sodium-dependent dopamine transporter (Rattus norvegicus)
Sequence (P23977 whole entry): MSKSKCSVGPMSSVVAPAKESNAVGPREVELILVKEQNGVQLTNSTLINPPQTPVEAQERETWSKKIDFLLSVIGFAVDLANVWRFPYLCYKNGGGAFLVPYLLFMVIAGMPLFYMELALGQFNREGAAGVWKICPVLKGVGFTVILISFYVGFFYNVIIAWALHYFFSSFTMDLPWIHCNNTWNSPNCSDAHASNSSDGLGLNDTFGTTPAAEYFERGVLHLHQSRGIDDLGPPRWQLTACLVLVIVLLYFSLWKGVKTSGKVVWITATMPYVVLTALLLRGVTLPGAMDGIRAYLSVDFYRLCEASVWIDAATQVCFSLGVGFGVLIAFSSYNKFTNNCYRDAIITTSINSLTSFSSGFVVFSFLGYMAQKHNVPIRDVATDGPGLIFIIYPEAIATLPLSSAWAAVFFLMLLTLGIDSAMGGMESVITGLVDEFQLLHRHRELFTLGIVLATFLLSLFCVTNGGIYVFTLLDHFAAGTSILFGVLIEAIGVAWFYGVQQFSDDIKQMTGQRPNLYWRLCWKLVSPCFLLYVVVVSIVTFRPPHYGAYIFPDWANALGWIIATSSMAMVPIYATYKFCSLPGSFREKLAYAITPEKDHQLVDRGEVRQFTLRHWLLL
Assay: Inhibition of DAT-mediated dopamine uptake in rat synaptosomes
Just a reminder that ties go to False: only IC50 strictly below 1000 nM counts as True.

Example results:
1. C[C@H](NC1CC1)C(=O)c1cccc(Cl)c1 = True
2. CCCNC(C)C(=O)c1cccc(Cl)c1 (stereo unspecified) = True
3. CCCC(N)Cc1ccccc1 (stereo unspecified) = False
4. Cc1ccc(C(=O)C(C)NC2CC2)cc1Cl (stereo unspecified) = True

Problem: Could you please tell me whether IC50 recorded for Cc1cccc(C(=O)C(C)NC2CC2)c1 (stereo unspecified) is less than 1000 nM?
Solution: False

Problem: IC50 under 1000 nM? Item: Cc1ccc(C(=O)C(C)NC2CC2)cc1 (stereo unspecified)
Solution: False

----------
Target: Transporter (Rattus norvegicus) (UniProt Q63380)
Sequence (Q63380 as listed by the source): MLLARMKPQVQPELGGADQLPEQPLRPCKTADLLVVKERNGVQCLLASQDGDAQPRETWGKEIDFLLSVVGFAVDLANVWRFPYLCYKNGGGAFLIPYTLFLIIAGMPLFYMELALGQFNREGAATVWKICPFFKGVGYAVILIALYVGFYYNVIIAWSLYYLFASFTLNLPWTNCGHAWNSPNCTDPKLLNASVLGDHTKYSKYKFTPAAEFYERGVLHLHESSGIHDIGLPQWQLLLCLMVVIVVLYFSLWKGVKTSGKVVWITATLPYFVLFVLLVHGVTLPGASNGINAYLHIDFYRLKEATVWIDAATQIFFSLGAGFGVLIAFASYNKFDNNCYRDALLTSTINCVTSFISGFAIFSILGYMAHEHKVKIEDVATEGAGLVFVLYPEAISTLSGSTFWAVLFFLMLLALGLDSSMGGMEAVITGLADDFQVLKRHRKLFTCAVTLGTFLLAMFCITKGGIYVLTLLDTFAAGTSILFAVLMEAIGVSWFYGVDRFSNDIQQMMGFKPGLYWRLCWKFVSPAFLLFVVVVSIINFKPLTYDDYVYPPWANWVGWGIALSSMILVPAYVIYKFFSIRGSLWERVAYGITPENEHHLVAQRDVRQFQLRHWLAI
Test: Inhibition of NET-mediated norepinephrine uptake in rat synaptosomes
Format: subcellular
Details: Brain
Active and inactive are the calls of the source. The rule behind the calls is not given here.
value_kind: inhibition

1. CCCC(N)Cc1ccccc1 (stereo not drawn) = Active
2. CCC(Cc1ccccc1)NC (stereo not drawn) = Active
3. Cc1cccc(C(=O)C(C)NC2CC2)c1 (stereo not drawn) = Active

----------
Target: 5-hydroxytryptamine receptor 2A (Homo sapiens)
Experiment: Agonist activity at human 5HT2A expressed in HEK293 cells at 10 uM by calcium mobilization assay
Type: functional, cell-based
Calls of active or inactive are those of the source. The rule behind the calls is not given here.
value_kind: Activity

Consider the reported Activity for these molecules:
1. CC(NC1CC1)C(=O)c1ccc(Cl)cc1 (configuration not stated) = inactive
2. CCNC(C)C(=O)c1cccc(Cl)c1 (configuration not stated) = inactive
3. CC(NC1CC1)C(=O)c1cccc(Br)c1 (configuration not stated) = inactive
4. Cc1cccc(C(=O)C(C)NC2CC2)c1 (configuration not stated) = inactive
5. CC(NC1CC1)C(=O)c1ccc(Cl)c(Cl)c1 (configuration not stated) = inactive

Briefly, Activity measured for CNC(C)C(=O)c1cccc(Cl)c1 (configuration not stated) : inactive

CC(N)Cc1cccc(Cl)c1 (configuration not stated) has a reported Activity of inactive

Documented Activity of CC(NC1CC1)C(=O)c1cccc(Cl)c1 (configuration not stated) : inactive

Looking up Cc1ccc(C(=O)C(C)NC2CC2)cc1 (configuration not stated) , I see its Activity listed as inactive

----------
Target: 5-hydroxytryptamine receptor 2B (Homo sapiens)
Test: Agonist activity at human 5HT2B expressed in HEK293 cells at 10 uM by calcium mobilization assay
Type: functional, cell-based
Activity calls are given as the source filed them. The rule behind the calls is not given here.
value_kind: Activity

1) CCCC(N)Cc1ccccc1 (stereo not drawn) = inactive
2) CCC(Cc1ccccc1)NC (stereo not drawn) = inactive
3) CC(NC1CC1)C(=O)c1cccc(Cl)c1 (stereo not drawn) = inactive

----------
Target: UniProt:P23977
Assay: Inhibition of DAT-mediated dopamine uptake in rat synaptosomes
# label = 1 (yes) if IC50 < 400 nM else 0 (no)

For orientation, consider the following solved cases.
1) CC(NC1CC1)C(=O)c1ccc(Cl)cc1 (configuration not stated) = 0 (no)
2) COc1cccc(C(=O)C(C)NC2CC2)c1 (configuration not stated) = 0 (no)

Next, consider the following compound.
Problem: Lab note: confirm whether the reported IC50 for this compound is below 400 nM, equality not counting. compound: `C[C@@H](NC1CC1)C(=O)c1cccc(Cl)c1`
Solution: 1 (yes)

----------
Target: Sodium-dependent serotonin transporter (Homo sapiens)
Sequence (P31645 whole entry): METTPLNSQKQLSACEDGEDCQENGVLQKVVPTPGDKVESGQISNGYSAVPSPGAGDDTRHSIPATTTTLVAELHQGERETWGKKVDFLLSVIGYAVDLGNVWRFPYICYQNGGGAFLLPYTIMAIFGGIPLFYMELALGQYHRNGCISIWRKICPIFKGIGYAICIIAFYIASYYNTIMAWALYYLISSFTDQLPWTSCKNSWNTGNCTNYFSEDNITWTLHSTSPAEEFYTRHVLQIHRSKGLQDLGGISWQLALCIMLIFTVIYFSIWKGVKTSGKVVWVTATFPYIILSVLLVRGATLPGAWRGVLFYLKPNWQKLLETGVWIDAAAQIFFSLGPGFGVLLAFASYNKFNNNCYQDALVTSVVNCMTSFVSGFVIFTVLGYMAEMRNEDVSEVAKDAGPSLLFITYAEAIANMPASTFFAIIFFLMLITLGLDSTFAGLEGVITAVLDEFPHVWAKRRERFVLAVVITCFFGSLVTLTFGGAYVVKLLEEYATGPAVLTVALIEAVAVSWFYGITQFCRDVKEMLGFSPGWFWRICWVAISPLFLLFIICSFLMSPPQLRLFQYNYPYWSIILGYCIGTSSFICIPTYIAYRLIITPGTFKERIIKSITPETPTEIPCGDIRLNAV
Test: Induction of SERT (unknown origin)-mediated serotonin release
value_kind: pEC50
By convention, pEC50 is the negative base-10 log of a molar concentration.

For this molecule ( CCNC(C)C(=O)c1ccccc1 (stereo unspecified) ), measured pEC50 is 5.67

----------
Biological target: Sodium-dependent serotonin transporter (Rattus norvegicus)
Sequence (P31652 whole entry): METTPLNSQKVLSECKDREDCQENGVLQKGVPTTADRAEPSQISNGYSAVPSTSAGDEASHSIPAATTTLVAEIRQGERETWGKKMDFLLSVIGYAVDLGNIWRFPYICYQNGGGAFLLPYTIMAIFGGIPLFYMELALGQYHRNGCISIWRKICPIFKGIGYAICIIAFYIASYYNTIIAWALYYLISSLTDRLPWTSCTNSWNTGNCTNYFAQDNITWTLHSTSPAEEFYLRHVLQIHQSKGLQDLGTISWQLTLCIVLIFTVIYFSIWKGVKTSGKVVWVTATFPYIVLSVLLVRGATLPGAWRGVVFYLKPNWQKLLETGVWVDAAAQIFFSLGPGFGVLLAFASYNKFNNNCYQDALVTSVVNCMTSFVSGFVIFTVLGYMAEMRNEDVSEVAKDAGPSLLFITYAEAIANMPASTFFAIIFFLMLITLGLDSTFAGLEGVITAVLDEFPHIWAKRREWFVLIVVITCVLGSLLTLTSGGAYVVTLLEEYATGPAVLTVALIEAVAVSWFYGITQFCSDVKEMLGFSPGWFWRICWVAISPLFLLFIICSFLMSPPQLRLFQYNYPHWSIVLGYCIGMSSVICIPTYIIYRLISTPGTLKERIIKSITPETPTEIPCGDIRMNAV
Test: Induction of SERT-mediated serotonin release in rat synaptosomes
pEC50: −log10 of the molar value.
Param threshold (6) applies to pEC50; output yes (1) when value >= threshold, no (0) when value < threshold.

The examples below pair each entry with its known result.
1) CC(NC1CC1)C(=O)c1ccc(Cl)c(Cl)c1 (configuration not stated) = yes (1)
2) CCC(Cc1ccccc1)NC (configuration not stated) = no (0)
3) Cc1ccc(C(=O)C(C)NC2CC2)cc1Cl (configuration not stated) = yes (1)
4) C[C@H](NC1CC1)C(=O)c1cccc(Cl)c1 = yes (1)
5) CC(NC1CC1)C(=O)c1ccc(Cl)cc1 (configuration not stated) = no (0)

Problem: Say whether CNC(C)C(=O)c1cccc(Cl)c1 (configuration not stated) shows pEC50 of 6 or more.
Solution: yes (1)

Problem: Does CC(NC1CC1)C(=O)c1cccc(Br)c1 (configuration not stated) have a reported pEC50 of at least 6?
Solution: yes (1)

----------
Target: Sodium-dependent dopamine transporter (Homo sapiens)
Sequence (Q01959 whole entry): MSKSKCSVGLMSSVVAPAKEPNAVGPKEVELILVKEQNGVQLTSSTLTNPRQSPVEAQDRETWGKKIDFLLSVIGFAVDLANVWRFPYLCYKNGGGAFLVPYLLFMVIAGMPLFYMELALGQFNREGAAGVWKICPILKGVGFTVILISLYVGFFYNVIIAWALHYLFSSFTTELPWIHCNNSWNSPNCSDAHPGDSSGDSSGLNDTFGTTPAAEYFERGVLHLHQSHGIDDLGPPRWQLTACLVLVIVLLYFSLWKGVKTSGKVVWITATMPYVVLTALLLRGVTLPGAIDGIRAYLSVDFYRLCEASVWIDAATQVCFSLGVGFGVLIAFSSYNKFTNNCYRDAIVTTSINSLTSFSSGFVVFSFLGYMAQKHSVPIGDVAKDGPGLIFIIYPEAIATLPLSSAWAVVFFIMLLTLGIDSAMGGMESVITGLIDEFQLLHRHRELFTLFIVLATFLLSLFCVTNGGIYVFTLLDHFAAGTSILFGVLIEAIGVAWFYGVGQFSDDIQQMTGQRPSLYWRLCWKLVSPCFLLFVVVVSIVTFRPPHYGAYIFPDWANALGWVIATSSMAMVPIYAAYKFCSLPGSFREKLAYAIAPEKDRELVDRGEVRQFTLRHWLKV
Experiment: Inhibition of DAT (unknown origin)-mediated dopamine reuptake
value_kind: pKi
Remember the convention: pKi equals -log10 of concentration in molar.

pKi in this record for CCNC(C)C(=O)c1ccccc1 (stereo unspecified) : 5.99

----------
Biological target: 5-hydroxytryptamine receptor 2A (Homo sapiens) (UniProt P28223)
Sequence (P28223 whole entry): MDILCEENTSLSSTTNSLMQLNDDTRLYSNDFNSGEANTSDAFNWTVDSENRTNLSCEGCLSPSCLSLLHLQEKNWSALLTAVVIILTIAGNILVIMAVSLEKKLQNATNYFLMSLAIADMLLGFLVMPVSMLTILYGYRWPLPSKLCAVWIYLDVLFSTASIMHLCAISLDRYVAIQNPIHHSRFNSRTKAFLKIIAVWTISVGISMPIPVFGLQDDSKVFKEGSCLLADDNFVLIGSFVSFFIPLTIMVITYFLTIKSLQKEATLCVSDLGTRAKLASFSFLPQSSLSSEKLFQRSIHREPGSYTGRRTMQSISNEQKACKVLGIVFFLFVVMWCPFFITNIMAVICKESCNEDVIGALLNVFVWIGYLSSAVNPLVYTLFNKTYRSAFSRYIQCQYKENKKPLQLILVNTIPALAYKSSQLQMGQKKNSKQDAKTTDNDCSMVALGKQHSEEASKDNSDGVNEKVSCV
Assay: Agonist activity at human 5HT2A expressed in HEK293 cells at 10 uM by calcium mobilization assay
Format: functional, cell-based
Calls of active or inactive are those of the source. The rule behind the calls is not given here.
value_kind: Activity

1) CCCNC(C)C(=O)c1cccc(Cl)c1 (stereo not drawn) = inactive
2) CCC(NC)C(=O)c1ccccc1 (stereo not drawn) = inactive
3) COc1cccc(C(=O)C(C)NC2CC2)c1 (stereo not drawn) = inactive
4) Cc1ccc(C(=O)C(C)NC2CC2)cc1Cl (stereo not drawn) = inactive
5) C[C@H](NC1CC1)C(=O)c1cccc(Cl)c1 = inactive

The value of Activity measured for the compound CCCC(N)Cc1ccccc1 (stereo not drawn) turned out to be inactive

The recorded Activity for `C[C@@H](NC1CC1)C(=O)c1cccc(Cl)c1` is inactive

Lab note: measured Activity of CCC(Cc1ccccc1)NC (stereo not drawn) was inactive

----------
Target: Sodium-dependent dopamine transporter (Rattus norvegicus)
Experiment: Inhibition of DAT-mediated dopamine uptake in rat synaptosomes
# IC50 annotations
// note: answer is a bare numeric in nM

The examples below pair each entry with its known result.
1) CC(NC1CC1)C(=O)c1cccc(Br)c1 (centres undefined) = 386
2) CC(NC1CC1)C(=O)c1cccc(Cl)c1 (centres undefined) = 533
3) CCNC(C)C(=O)c1cccc(Cl)c1 (centres undefined) = 5920

For this compound ( CC(NC1CC1)C(=O)c1ccc(Cl)c(Cl)c1 (centres undefined) ), measured IC50 is 425

----------
Consider the following molecules and their measured pEC50 readings.
Molecular target: Sodium-dependent serotonin transporter (Rattus norvegicus)
Experiment: Induction of SERT-mediated serotonin release in rat synaptosomes
Here pEC50 is given on a logarithmic scale as minus log10 of the concentration in mol/L.

Recorded pEC50, per entry:
1) CC(NC1CC1)C(=O)c1cccc(Cl)c1 (stereo not given) = 5.88
2) Cc1cccc(C(=O)C(C)NC2CC2)c1 (stereo not given) = 5.97
3) C[C@@H](NC1CC1)C(=O)c1cccc(Cl)c1 = 6.13
4) COc1cccc(C(=O)C(C)NC2CC2)c1 (stereo not given) = 5.99

Here is another molecule to look at.
get_value(item= Cc1ccc(C(=O)C(C)NC2CC2)cc1 (stereo not given) , readout=pEC50) returns 6.18
